Structures can show the parent of a compound that is named as a salt.
Record type: IC50 measurement. Applies to: Aurora B (Homo sapiens (Human), UniProt Q96GD4)

{"COMPOUND": "COc1ccc2c(c1)[C@]1(C[C@H]1c1ccc3c(-c4ccc(N5CCN(C6CCCCC6)CC5)cc4)n[nH]c3c1)C(=O)N2 [Example A193, 2,2,2-trifluoroacetate]", "IC50": "< 100 nM"}
{"COMPOUND": "COc1ccc2c(c1)[C@]1(C[C@H]1c1ccc3c(/C=C/c4csc(CN(C)C)c4)n[nH]c3c1)C(=O)N2 (relative stereo)", "IC50": "< 100 nM"}
{"COMPOUND": "COc1ccc2c(c1)[C@]1(C[C@H]1c1ccc3c(/C=C/c4cc(F)c(CN(C)C)c(F)c4)n[nH]c3c1)C(=O)N2 [Example A216, 2,2,2-trifluoroacetate]", "IC50": "< 100 nM"}
{"COMPOUND": "COc1ccc2c(c1)[C@]1(C[C@H]1c1ccc3c(/C=C/c4csc(CN5CCOCC5)c4)n[nH]c3c1)C(=O)N2 [Example A183, 2,2,2-trifluoroacetate]", "IC50": "< 100 nM"}
{"COMPOUND": "COc1ccc2c(c1)[C@]1(C[C@H]1c1ccc3c(-c4ccc(CCN5CCOCC5)cc4)n[nH]c3c1)C(=O)N2 (relative stereo) [Example A159, 2,2,2-trifluoroacetate]", "IC50": "< 100 nM"}
{"COMPOUND": "COc1ccc2c(c1)[C@]1(C[C@H]1c1ccc3c(-c4ccc(C5CCN(C)CC5)cc4)n[nH]c3c1)C(=O)N2 [Example A123, hydrochloride]", "IC50": "< 100 nM"}
{"COMPOUND": "COc1ccc2c(c1)[C@]1(C[C@H]1c1ccc3c(/C=C/c4ccc(CC5CCN(C)CC5)cc4)n[nH]c3c1)C(=O)N2 [Example A82, 2,2,2-trifluoroacetate salt]", "IC50": "< 100 nM"}
{"COMPOUND": "COc1ccc2c(c1)[C@]1(C[C@H]1c1ccc3c(/C=C/c4ccc(CN5CC[C@@H](F)C5)cc4)n[nH]c3c1)C(=O)N2 [Example A112, 2,2,2-trifluoroacetate]", "IC50": "< 100 nM"}
{"COMPOUND": "O=C1Nc2ncc(Br)cc2[C@]12C[C@H]2c1ccc2c(/C=C/c3cccnc3)n[nH]c2c1 (relative stereo)", "IC50": "< 100 nM"}
{"COMPOUND": "COc1ccc2c(c1)[C@]1(C[C@H]1c1ccc3c(-c4ccc(N(C)CCN(C)C)cc4)n[nH]c3c1)C(=O)N2 [Example A129, 2,2,2-trifluoroacetate]", "IC50": "< 100 nM"}
{"COMPOUND": "COCCN1C(=O)[C@@]2(C[C@H]2c2ccc3c(/C=C/c4ccc(CN(C)C)cc4)n[nH]c3c2)c2ccccc21 (relative stereo) [Example A180, 2,2,2-trifluoroacetate]", "IC50": "< 100 nM"}
{"COMPOUND": "CN1CCN(c2ccc(/C=C/c3n[nH]c4cc([C@@H]5C[C@@]56C(=O)N(C)c5ccccc56)ccc34)cn2)CC1 [Example A110, acetate]", "IC50": "< 100 nM"}
{"COMPOUND": "C[C@@H]1CCC[C@H](C)N1Cc1ccc(/C=C/c2n[nH]c3cc([C@@H]4C[C@@]45C(=O)Nc4ccccc45)ccc23)cc1 [Example A201, 2,2,2-trifluoroacetate]", "IC50": "< 100 nM"}
{"COMPOUND": "COc1ccc2c(c1)[C@]1(C[C@H]1c1ccc3c(-c4ccc(OCCN(C)C)cc4)n[nH]c3c1)C(=O)N2 [Example A69, 2,2,2-trifluoroacetate salt]", "IC50": "< 100 nM"}
{"COMPOUND": "NS(=O)(=O)c1cccc(-c2n[nH]c3cc([C@@H]4C[C@@]45C(=O)Nc4ccccc45)ccc23)c1 (relative stereo)", "IC50": "100 to 1000 nM"}
{"COMPOUND": "COc1ccc2c(c1)[C@]1(C[C@H]1c1ccc3c(-c4ccc(N5CCNCC5)cc4)n[nH]c3c1)C(=O)N2 (relative stereo) [Example A48, 2,2,2-trifluoroacetate]", "IC50": "< 100 nM"}
{"COMPOUND": "Cc1ccc2c(c1)[C@]1(C[C@H]1c1ccc3c(-c4ccc(N5CCN(C)CC5)cc4)n[nH]c3c1)C(=O)N2 (relative stereo) [Example A173, 2,2,2-trifluoroacetate]", "IC50": "< 100 nM"}
{"COMPOUND": "COc1ccc2c(c1)[C@]1(C[C@H]1c1ccc3c(I)n[nH]c3c1)C(=O)N2", "IC50": "100 to 1000 nM"}
{"COMPOUND": "COc1ccc2c(c1)[C@]1(C[C@H]1c1ccc3c(-c4ccc(N5CC[C@@H](N(C)C)C5)cc4)n[nH]c3c1)C(=O)N2 [Example A127, 2,2,2-trifluoroacetate]", "IC50": "< 100 nM"}
{"COMPOUND": "COc1ccc2c(c1)[C@]1(C[C@H]1c1ccc3c(-c4ccc(CO)cc4)n[nH]c3c1)C(=O)N2 (relative stereo) [Example A45, 2,2,2-trifluoroacetate]", "IC50": "100 to 1000 nM"}
{"COMPOUND": "COc1ccc2c(c1)[C@]1(C[C@H]1c1ccc3c(-c4cccc(CO)c4)n[nH]c3c1)C(=O)N2 (relative stereo) [Example A43, 2,2,2-trifluoroacetate]", "IC50": "< 100 nM"}
{"COMPOUND": "COc1ccc2c(c1)[C@]1(C[C@H]1c1ccc3c(-c4cccc(CN5CCCCC5)c4)n[nH]c3c1)C(=O)N2 (relative stereo) [Example A44, 2,2,2-trifluoroacetate]", "IC50": "100 to 1000 nM"}
